Let's look at some compounds and their measured IC50.
System: Plasmodium falciparum
protocolText: Antiplasmodial activity against chloroquine-resistant Plasmodium falciparum INDO assessed as growth inhibition by SYBER green 1 dye based fluorescence assay
Assay type: functional, organism-based
Give the quantity in nM, number only.

(Q) # input compound: C[C@@H]1CC[C@H]2[C@@H](C)C(=O)O[C@@H]3O[C@@]4(C)CC[C@@H]1[C@]32OO4 ; wanted: its IC50
(A) 6.6

====

protocolText: Selectivity index, ratio of CC50 for human HEK293 cells to IC50 for antiplasmodial activity against chloroquine-resistant Plasmodium falciparum INDO
Type: toxicity
settings: HEK293 cells versus Plasmodium falciparum INDO
readout: selectivity ratio
// keep it numeric: no unit symbol after the value

Look over these answered cases.
molecule	selectivity ratio
C=C(c1ccc(Cl)c(Cl)c1Cl)C1COC2(OO1)C1CC3CC(C1)CC2C3 (centres undefined)	1810
C=C(c1ccc(Cl)c(Cl)c1Cl)C1COC2(CCCC2)OO1 (centres undefined)	72
C=C(c1cc(Cl)cc(Cl)c1OCc1ccccc1)C1COC2(CCCC2)OO1 (centres undefined)	72.9

(Q) # input molecule: C=C(c1ccc(OC)c(F)c1)C1COC2(CCCC2)OO1 (centres undefined) ; wanted: its selectivity ratio
(A) 3000
